Taken from the supplement of paper PMC9732359.

- methodSummary: protein stability index of a GFP-peptide fusion (yeast GPS) (PSI 1-4); higher = more stable; sorted into four equal gates, so the index is relative within each strain
- experimentalConditions: doa10∆
For each entry below, report its protein stability index value.
Answers are plain numbers.

| orderedResidues | protein stability index |
| --- | --- |
| SHDKKTKCSTVVKASEL [SRP14] | 3.02 |

Provide reported protein stability index for each item, in the same order as listed.
1. ITNKHQEGLAKFGACVA [RPN2]
2. FTKYKPARSSSLRSNVV [YAR002W/NUP60]
3. WLEQFLSCVKNDTISED [NUT1]

Resp:
[1.78, 1.79, 1.73]
